- measurement context: in methanol, 303.15 K
endpoint name: solubility (mole fraction)

>>> print(df.to_string())
                                smiles_repr               endpoint_name  measured_value
0  O=C(Nc1ccc(F)cc1F)c1cccnc1Oc1cccc(C(F)(F)F)c1  solubility (mole fraction)        0.000799

---

- measurement context: in ethyl acetate, 283.15 K
endpoint name: solubility (mole fraction)

>>> print(df.to_string())
                                smiles_repr               endpoint_name  measured_value
0  O=C(Nc1ccc(F)cc1F)c1cccnc1Oc1cccc(C(F)(F)F)c1  solubility (mole fraction)          0.0125

---

- measurement context: in methanol, 293.15 K
endpoint name: solubility (mole fraction)

>>> df
                                smiles_repr  measured_value
0  O=C(Nc1ccc(F)cc1F)c1cccnc1Oc1cccc(C(F)(F)F)c1        0.000489

---

- measurement context: in ethyl acetate, 303.15 K
endpoint name: solubility (mole fraction)

>>> print(df.to_string())
                                smiles_repr  measured_value
0  O=C(Nc1ccc(F)cc1F)c1cccnc1Oc1cccc(C(F)(F)F)c1           0.024

---

- measurement context: in ethanol, 318.15 K
endpoint name: solubility (mole fraction)

                                smiles_repr  measured_value
0  O=C(Nc1ccc(F)cc1F)c1cccnc1Oc1cccc(C(F)(F)F)c1         0.00177

---

- measurement context: in ethyl acetate, 323.15 K
endpoint name: solubility (mole fraction)

In [3]: df
Out[3]:
                                smiles_repr               endpoint_name  measured_value
0  O=C(Nc1ccc(F)cc1F)c1cccnc1Oc1cccc(C(F)(F)F)c1  solubility (mole fraction)          0.0429

---

- measurement context: in ethyl acetate, 298.15 K
endpoint name: solubility (mole fraction)

>>> df
                                smiles_repr  measured_value
0  O=C(Nc1ccc(F)cc1F)c1cccnc1Oc1cccc(C(F)(F)F)c1          0.0206

---

- measurement context: in ethanol, 323.15 K
endpoint name: solubility (mole fraction)

>>> df
                                smiles_repr               endpoint_name  measured_value
0  O=C(Nc1ccc(F)cc1F)c1cccnc1Oc1cccc(C(F)(F)F)c1  solubility (mole fraction)          0.0022

---

- measurement context: in ethyl acetate, 318.15 K
endpoint name: solubility (mole fraction)

In [3]: df
Out[3]:
                                smiles_repr  measured_value
0  O=C(Nc1ccc(F)cc1F)c1cccnc1Oc1cccc(C(F)(F)F)c1          0.0371

---

- measurement context: in ethanol, 278.15 K
endpoint name: solubility (mole fraction)

In [3]: df
Out[3]:
                                smiles_repr               endpoint_name  measured_value
0  O=C(Nc1ccc(F)cc1F)c1cccnc1Oc1cccc(C(F)(F)F)c1  solubility (mole fraction)        0.000246
